protocol text: Half life in rat
Type: ADME, organism-based
test settings: in vivo

>  <chem smiles>
CC(C)N1CCC(c2cc3c(c(-c4ccccc4Cl)n2)CNC(=O)N3c2c(Cl)cccc2Cl)CC1

>  <unit symbol>
h

>  <half-life>
2.1

$$$$
>  <chem smiles>
CC(C)N1CCC(Nc2nc(-c3ccccc3Cl)c3c(n2)N(c2c(Cl)cccc2Cl)C(=O)NC3)CC1

>  <unit symbol>
h

>  <half-life>
2

$$$$
>  <chem smiles>
Nc1nc(-c2ccccc2Cl)c2c(n1)N(c1c(Cl)cccc1Cl)C(=O)NC2

>  <unit symbol>
h

>  <half-life>
1.1

$$$$

----------
Test system: THP-1
protocol text: Inhibition of LPS-stimulated TNFalpha release in human THP1 cells
Type: functional, cell-based

>  <compound>
O=C1NCc2c(-c3ccccc3Cl)nc(O)nc2N1c1c(Cl)cccc1Cl

>  <IC50, nM>
170

$$$$
>  <compound>
CS(=O)(=O)c1nc(-c2ccccc2Cl)c2c(n1)N(c1c(Cl)cccc1Cl)C(=O)NC2

>  <IC50, nM>
500

$$$$
>  <compound>
O=C1NCc2c(-c3ccccc3Cl)nc(N3CCOCC3)nc2N1c1c(Cl)cccc1Cl

>  <IC50, nM>
500

$$$$
>  <compound>
CN(C)CCN1CCN(c2nc(-c3ccccc3Cl)c3c(n2)N(c2c(Cl)cccc2Cl)C(=O)NC3)CC1

>  <IC50, nM>
2.3

$$$$
>  <compound>
COCCNc1nc(-c2ccc(Cl)cc2Cl)c2c(n1)N(c1c(Cl)cccc1Cl)C(=O)NC2

>  <IC50, nM>
97

$$$$
>  <compound>
CC(C)N1CCC(Nc2nc(-c3ccccc3Cl)c3c(n2)N(c2c(Cl)cccc2Cl)C(=O)NC3)CC1

>  <IC50, nM>
1

$$$$
>  <compound>
CN(C)CCNc1nc(-c2ccc(Cl)cc2Cl)c2c(n1)N(c1c(Cl)cccc1Cl)C(=O)NC2

>  <IC50, nM>
20

$$$$
>  <compound>
CSc1nc(-c2ccccc2Cl)c2c(n1)N(c1c(Cl)cccc1Cl)C(=O)NC2

>  <IC50, nM>
700

$$$$
>  <compound>
CC(C)(C)CNc1nc(-c2ccccc2Cl)c2c(n1)N(c1c(Cl)cccc1Cl)C(=O)NC2

>  <IC50, nM>
21

$$$$
>  <compound>
C[C@@H]1CN(c2nc(-c3ccc(Cl)cc3Cl)c3c(n2)N(c2c(Cl)cccc2Cl)C(=O)NC3)C[C@H](C)O1

>  <IC50, nM>
500

$$$$
>  <compound>
CN(C)CCOc1nc(-c2ccccc2Cl)c2c(n1)N(c1c(Cl)cccc1Cl)C(=O)NC2

>  <IC50, nM>
21

$$$$
>  <compound>
CNc1nc(-c2ccccc2Cl)c2c(n1)N(c1c(Cl)cccc1Cl)C(=O)NC2

>  <IC50, nM>
22

$$$$
>  <compound>
CN(C)CCN1CCN(c2nc(-c3ccc(Cl)cc3Cl)c3c(n2)N(c2c(Cl)cccc2Cl)C(=O)NC3)CC1

>  <IC50, nM>
22

$$$$
>  <compound>
O=C1NCc2c(-c3ccccc3Cl)nc(NN3CCOCC3)nc2N1c1c(Cl)cccc1Cl

>  <IC50, nM>
99

$$$$
>  <compound>
CN1C2CCC1CC(Nc1nc(-c3ccccc3Cl)c3c(n1)N(c1c(Cl)cccc1Cl)C(=O)NC3)C2 (stereo not drawn)

>  <IC50, nM>
2.6

$$$$
>  <compound>
O=C1NCc2c(-c3ccccc3Cl)nc(NC3CN4CCC3CC4)nc2N1c1c(Cl)cccc1Cl (stereo not drawn)

>  <IC50, nM>
34

$$$$
>  <compound>
CC(C)Nc1nc(-c2ccccc2Cl)c2c(n1)N(c1c(Cl)cccc1Cl)C(=O)NC2

>  <IC50, nM>
38

$$$$
>  <compound>
CC(C)N1CCN(c2nc(-c3ccc(Cl)cc3Cl)c3c(n2)N(c2c(Cl)cccc2Cl)C(=O)NC3)CC1

>  <IC50, nM>
330

$$$$
